For human factor XIa (Homo sapiens, UniProt P03951), measured pIC50 is reported for the entries below.
pIC50: −log10 of the molar value. Where a name gives a salt, the structure may show the parent alone.
REPORTED_ENDPOINT: pIC50

Past entries and their recorded results:
State the recorded pIC50 for this entry: Cc1cc(C)c(-c2ccc(C[C@H](NC(=O)[C@H]3CC[C@H](CN)CC3)C(=O)Nc3ccc(-c4nn[nH]n4)cc3)cc2)cc1C(=O)N(C)C [Example 39, hydrochloride]
8.48

Consider the compound NC[C@H]1CC[C@H](C(=O)N[C@@H](Cc2ccc(-c3cccc(C(=O)NC4CCNCC4)c3)cc2)C(=O)Nc2ccc(-c3nn[nH]n3)cc2)CC1 [Example 13, hydrochloride] and give its measured pIC50.
7.77

Consider the compound Cc1ccc(C(=O)N[C@@H]2CCNC2)cc1-c1ccc(C[C@H](NC(=O)[C@H]2CC[C@H](CN)CC2)C(=O)Nc2ccc(-c3nn[nH]n3)cc2)cc1 [Example 11, hydrochloride] and give its measured pIC50.
8.16

1 = Cc1ccc(C(=O)N2CCOCC2)cc1-c1ccc(C[C@H](NC(=O)[C@H]2CC[C@H](CN)CC2)C(=O)Nc2ccc(-c3nn[nH]n3)cc2)cc1 [Example 33, hydrochloride]
2 = CCN(CC)CCNC(=O)c1cccc(-c2ccc(C[C@H](NC(=O)[C@H]3CC[C@H](CN)CC3)C(=O)Nc3ccc(-c4nn[nH]n4)cc3)cc2)c1F [Example 16, hydrochloride]
Looking only at measured pIC50, which entry is lower, 1 or 2 ? Pick one; state its label.
2

Data credit: patent US20160237067A1
